# cAMP EC50 per record follows
Target: human glucagon receptor (human, UniProt P47871 26-477)
Assay: cell-based or functional assay

Previously resolved entries follow.
IP317 (Fc fusion) YSEGTFTSDVSSYLEKQAIDEFIAWLLKGGAAAGGSGSTASSGSGSATGGGGAATHTCPPC : > 5.55 µM
IP259 (Fc fusion) YSEGTFTSDYSKLLEKEAVRLFIEWLVKGPGGGGGSGGGGSGGGGSGGGGSATHTCPPCPAPEF : > 0.48 µM

Query :: Dear colleague, please send me the reported cAMP EC50 for IP024 (Fc fusion) YSEGTFTSDYSKLLEEEAVRLFIEWLLAGAAAGGSGSTASSGSGSATGGGGAATHTCPPCPAPEF when you can.
Result :: 0.017 µM

Query :: Annotate the binder YSEGTFTSDYSKLLEEEAVRLFIEWLVKGPGGGGGGGGGGGGATHTCPPC (Fc fusion) [IP284] with its measured cAMP EC50.
Result :: 18 µM

Query :: Identify cAMP EC50 associated with the binder IP383 (Fc fusion) YSEGTFTSLYRILLEEEAVRLFIEWLLAGGGGGGSGGGGSGGGGSGGGGSATHTCPPC
Result :: > 1.61 µM

Query :: Consider the binder IP355 (Fc fusion) YSEGTHTSLFSKLLEEEAVRLFIEWLLAGGGGGGSGGGGSGGGGSGGGGSATHTCPPC . State its measured cAMP EC50.
Result :: > 0.527 µM

Query :: Output measured cAMP EC50 for this item: IP213 (Fc fusion) YSEGTFTSDYSKLLEEEAVRLFIEWLLAGGAAAGGSGSTASSGSGSATGGGGAATHTCPPCPAPEF
Result :: 0.018 µM

Query :: Give reported cAMP EC50 value for IP293 (Fc fusion) YSEGTFTSDYSKLLEEEAVRCFIECLVKGPGGGGGGGGGGGGGGGGGGGGACPPC
Result :: > 13 µM

Query :: Provide measured cAMP EC50 value, entry: IP256 (Fc fusion) YSEGTFTSDYSKLLEEEAVRLFIEWLLAGGHNITQGGGGGSGGGGSGGGGSGGGGSATHTCPPCPAPEF
Result :: > 0.42 µM

Query :: Find the measured cAMP EC50 of IP228 (Fc fusion) YSEGTFTSDYSKLLEEEAVRLFIEWLKNGGAAAGGSGSTASSGSGSATGGGGAATHTCPPCPAPEF and report it.
Result :: 1.4 µM

Query :: Name the recorded cAMP EC50 of the item IP362 (Fc fusion) YSEGTFTSDYMMLKEEEAVRLFIEWLLAGGGGGGSGGGGSGGGGSGGGGSATHTCPPC in your answer.
Result :: > 4.96 µM
